Overview of recorded pKi for various compounds
targetUnderTest: VMAT2 (Rattus norvegicus)
Construct: from tissue; host or cells: rat striatum, isolated synaptic vesicles
Sequence (Q01827 whole entry): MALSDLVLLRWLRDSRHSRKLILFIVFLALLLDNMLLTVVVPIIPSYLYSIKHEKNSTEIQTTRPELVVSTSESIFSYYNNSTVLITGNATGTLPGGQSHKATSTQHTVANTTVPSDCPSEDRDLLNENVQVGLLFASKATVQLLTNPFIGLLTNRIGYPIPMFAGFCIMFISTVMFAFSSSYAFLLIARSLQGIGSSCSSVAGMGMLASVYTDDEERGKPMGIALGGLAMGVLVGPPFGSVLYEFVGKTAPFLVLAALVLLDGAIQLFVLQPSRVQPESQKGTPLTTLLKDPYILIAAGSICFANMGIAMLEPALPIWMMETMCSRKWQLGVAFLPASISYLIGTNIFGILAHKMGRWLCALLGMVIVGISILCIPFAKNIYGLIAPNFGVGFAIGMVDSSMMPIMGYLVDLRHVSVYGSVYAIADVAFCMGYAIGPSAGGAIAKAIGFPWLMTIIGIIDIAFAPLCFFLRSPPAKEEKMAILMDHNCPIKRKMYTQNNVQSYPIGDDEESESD
testSummary: [3H]Dopamine ([3H]DA) uptake assay, vesicular preparation
Type: biochemical
pKi: −log10 of the molar value.
observable: pKi

compound	observable	testResult
CC(Cc1ccc2nccnc2c1)NCCCc1ccc(F)cc1 (centres unmarked)	pKi	7.89
CC(Cc1ccc(F)cc1)NCCCc1ccccn1 (centres unmarked)	pKi	6.70
CC(Cc1cccc(N)c1)NCCCc1ccc(F)cc1 (centres unmarked)	pKi	8.30
CC(Cc1ccc(F)c(F)c1)NCCCc1cccc(S(N)(=O)=O)c1 (centres unmarked)	pKi	7.00
CC(Cc1ccc(F)c(F)c1)NCCCc1cccc(N)c1 (centres unmarked)	pKi	6.69
CC(Cc1ccc(F)cc1)NCCCc1ccc(CN)cc1 (centres unmarked)	pKi	6.34
CC(Cc1ccc(F)c(F)c1)NCCCc1ccc2c(c1)C(=O)OC2 (centres unmarked)	pKi	6.57
CC(Cc1ccc(F)c(F)c1)NCCCc1ccc2cn[nH]c2c1 (centres unmarked)	pKi	7.48
CC(Cc1ccc(F)c(F)c1)NCCCc1ccccc1Cl (centres unmarked)	pKi	7.55
CSc1ccc(CCCNC(C)Cc2ccc(F)c(F)c2)cc1 (centres unmarked)	pKi	7.49
CC(Cc1ccccc1)NCCCc1ccc(F)cc1 (centres unmarked)	pKi	8.22
CC(Cc1ccc(F)cc1)NCCCc1cccnc1 (centres unmarked)	pKi	7.01
CC(Cc1ccccc1)ONCCc1ccccc1 (racemic)	pKi	4.38
CC(Cc1c[nH]c2ccccc12)NCCCc1ccc(F)cc1 (centres unmarked)	pKi	7.18
CC(Cc1ccc(-c2cncnc2)cc1)NCCCc1ccc(F)cc1 (centres unmarked)	pKi	8.10
CC(Cc1ccc(F)c(F)c1)NCCCc1ccc(C(N)=O)c(Cl)c1 (centres unmarked)	pKi	7.68
CC(Cc1ccc(F)c(F)c1)NCCCc1ccc(-c2ccnn2C)cc1 (centres unmarked)	pKi	6.93
CC(Cc1ccc(NC=O)cc1)NCCCc1ccc(F)cc1 (centres unmarked)	pKi	7.92
CC(Cc1ccc(F)c(F)c1)NCCCc1ccc(S(N)(=O)=O)cc1 (centres unmarked)	pKi	7.38
CC(Cc1ccc(F)c(F)c1)NCCCc1ccc(Cl)c(Cl)c1 (centres unmarked)	pKi	7.24
